- target-desc: T1, FtsQ (58–276) and FtsB (22–103) added together (Escherichia coli strain K-12 | E. coli, UniProt P06136 58-276; P0A6S5 22-103)
- T1 construct: FtsQ, Escherichia coli K-12, periplasmic domain, residues 58-276; as m1; as m2; The two proteins were injected in combination (40 µM each at the start of the dilution series) over immobilised FtsL; also called FtsB and FtsQ; FtsQB complex; source: E. coli C41(DE3), each purified separately (HisTrap, Sephacryl S300), injected in combination
- T1 sequence (P06136 58-276, chain 1 of 2): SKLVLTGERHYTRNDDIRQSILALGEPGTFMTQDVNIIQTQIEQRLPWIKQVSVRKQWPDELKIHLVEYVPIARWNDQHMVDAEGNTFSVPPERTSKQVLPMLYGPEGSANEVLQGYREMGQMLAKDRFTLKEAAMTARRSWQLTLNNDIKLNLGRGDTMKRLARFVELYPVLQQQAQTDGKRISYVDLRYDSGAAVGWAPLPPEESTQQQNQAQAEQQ
- T1 sequence (P0A6S5 22-103, chain 2 of 2): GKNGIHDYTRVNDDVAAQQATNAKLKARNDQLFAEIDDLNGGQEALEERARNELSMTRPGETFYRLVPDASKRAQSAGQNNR
- assay-method-text: SPR; FtsL (58–121) immobilised on a CM5 chip by amide coupling (~3,300 RU); Biacore T200, 20°C; 10 mM HEPES pH 7.4, 150 mM NaCl, 0.4% glycerol; FtsQ (58–276) and FtsB (22–103) from 40 µM each, alone or in combination
- test-parameters: both partners purified
quantity-name: Kd (µM)
Please give a number only; it is taken to be in µM.

Looking for the measured Kd of FtsL (58–121), periplasmic domain of E. coli FtsL (domain or fragment, UniProt P0AEN4 58-121, looked up, FtsL, E. coli, periplasmic domain, residues 58-121; Cloned into pET15b like FtsB; source: E. coli C41(DE3), purified (HisTrap, Sephacryl S300)) HHTRLLTAQREQLVLERDALDIEWRNLILEENALGDHSRVERIATEKLQMQHVDPSQENIVVQK , can you help?
11
